FYI, the data here is from patent US9856268B2.

# experimental.target: GSK-3 beta (Homo sapiens, UniProt P49841)
# Sequence (P49841 whole entry, species assumed): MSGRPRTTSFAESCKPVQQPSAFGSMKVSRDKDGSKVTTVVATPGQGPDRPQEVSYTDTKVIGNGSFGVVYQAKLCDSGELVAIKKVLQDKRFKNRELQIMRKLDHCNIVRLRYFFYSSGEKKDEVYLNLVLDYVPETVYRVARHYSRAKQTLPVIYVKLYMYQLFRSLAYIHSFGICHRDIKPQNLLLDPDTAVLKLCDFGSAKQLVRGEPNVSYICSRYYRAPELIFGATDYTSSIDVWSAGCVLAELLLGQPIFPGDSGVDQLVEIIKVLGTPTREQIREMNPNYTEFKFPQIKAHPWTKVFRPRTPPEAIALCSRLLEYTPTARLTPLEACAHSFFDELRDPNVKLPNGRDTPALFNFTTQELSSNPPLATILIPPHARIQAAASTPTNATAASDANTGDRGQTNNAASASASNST
# assay: Kinase electrophoretic mobility shift assay, GSK-3 beta
# Format: biochemical
# measurement.context: compounds tested at 10 μM, average of n = 2, ATP at apparent Km; read-out: GSK-3 beta activity (percent inhibition)
Listed below: inhibition at 10 µM values for each entry.

Examples from the recorded data:
compound | inhibition at 10 µM
CCC1Cn2c(cc3cnc(N[C@H]4CC[C@H](O)CC4)nc32)C(=O)N1 (stereo partly shown) | > 90%
O=C1NCCn2c1cc1cnc(N[C@H]3CC[C@H](O)CC3)nc12 | 71 to 90%
O=C1NC2(CCCC2)Cn2c1cc1cnc(N[C@H]3CC[C@H](O)CC3)nc12 | > 90%
Cc1ccccc1-c1c2n(c3nc(Nc4ccc(N5CCOCC5)cc4)ncc13)CCNC2=O | < 50%
CC1(C)CNC(=O)c2cc3cnc(N[C@H]4CC[C@H](O)CC4)nc3n21 | > 90%
O=C1NCC2(CCCC2)n2c1cc1cnc(N[C@H]3CC[C@H](O)CC3)nc12 | > 90%

For the next question, use this compound.
Req: So what's the measured inhibition at 10 µM for this one? "Cc1ccccc1-c1c2n(c3nc(N[C@H]4CC[C@H](O)CC4)ncc13)CCNC2=O"
Resp: < 50%

---

Reported inhibition at 10 µM values for the following molecules.
# experimental.target: JNK2 (Homo sapiens, UniProt P45984)
# Sequence (P45984 whole entry, species assumed): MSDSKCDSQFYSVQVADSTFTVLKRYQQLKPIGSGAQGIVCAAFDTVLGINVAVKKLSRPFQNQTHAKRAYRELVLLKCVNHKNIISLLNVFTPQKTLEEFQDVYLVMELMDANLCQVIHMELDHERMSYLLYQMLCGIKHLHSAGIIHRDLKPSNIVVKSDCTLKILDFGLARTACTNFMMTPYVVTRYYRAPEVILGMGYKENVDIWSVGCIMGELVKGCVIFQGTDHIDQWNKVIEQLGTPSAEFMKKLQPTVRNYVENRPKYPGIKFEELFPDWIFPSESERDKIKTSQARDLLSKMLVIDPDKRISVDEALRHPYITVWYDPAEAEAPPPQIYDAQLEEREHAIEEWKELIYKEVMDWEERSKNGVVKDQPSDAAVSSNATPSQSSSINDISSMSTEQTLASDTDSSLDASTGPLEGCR
# assay: Kinase electrophoretic mobility shift assay, JNK2
# Format: biochemical
# measurement.context: compounds tested at 10 μM, average of n = 2, ATP at apparent Km; read-out: JNK2 activity (percent inhibition)

Req: Field request: inhibition at 10 µM | item: "O=C1NCCn2c1cc1cnc(N[C@H]3CC[C@H](O)CC3)nc12"
Resp: > 90%

Req: Find the recorded inhibition at 10 µM belonging to "Cc1ccccc1-c1c2n(c3nc(Nc4ccc(N5CCOCC5)cc4)ncc13)CCNC2=O" and report it.
Resp: < 50%

Req: Can you look up the measured inhibition at 10 µM of "O=C1NC2(CCCC2)Cn2c1cc1cnc(N[C@H]3CC[C@H](O)CC3)nc12" for me?
Resp: > 90%

Req: Quick one: inhibition at 10 µM for "O=C1NCC2(CCCC2)n2c1cc1cnc(N[C@H]3CC[C@H](O)CC3)nc12" ?
Resp: > 90%

Req: Reported inhibition at 10 µM for CCC1Cn2c(cc3cnc(N[C@H]4CC[C@H](O)CC4)nc32)C(=O)N1 (stereo partly shown) : what is it?
Resp: > 90%

Req: Give the measured inhibition at 10 µM of "CC1(C)CNC(=O)c2cc3cnc(N[C@H]4CC[C@H](O)CC4)nc3n21" .
Resp: > 90%

Req: Value lookup for inhibition at 10 µM; key = "Cc1ccccc1-c1c2n(c3nc(N[C@H]4CC[C@H](O)CC4)ncc13)CCNC2=O"
Resp: 71 to 90%

---

# experimental.target: DYRK3 (Homo sapiens)
# Sequence (O43781 whole entry, species assumed): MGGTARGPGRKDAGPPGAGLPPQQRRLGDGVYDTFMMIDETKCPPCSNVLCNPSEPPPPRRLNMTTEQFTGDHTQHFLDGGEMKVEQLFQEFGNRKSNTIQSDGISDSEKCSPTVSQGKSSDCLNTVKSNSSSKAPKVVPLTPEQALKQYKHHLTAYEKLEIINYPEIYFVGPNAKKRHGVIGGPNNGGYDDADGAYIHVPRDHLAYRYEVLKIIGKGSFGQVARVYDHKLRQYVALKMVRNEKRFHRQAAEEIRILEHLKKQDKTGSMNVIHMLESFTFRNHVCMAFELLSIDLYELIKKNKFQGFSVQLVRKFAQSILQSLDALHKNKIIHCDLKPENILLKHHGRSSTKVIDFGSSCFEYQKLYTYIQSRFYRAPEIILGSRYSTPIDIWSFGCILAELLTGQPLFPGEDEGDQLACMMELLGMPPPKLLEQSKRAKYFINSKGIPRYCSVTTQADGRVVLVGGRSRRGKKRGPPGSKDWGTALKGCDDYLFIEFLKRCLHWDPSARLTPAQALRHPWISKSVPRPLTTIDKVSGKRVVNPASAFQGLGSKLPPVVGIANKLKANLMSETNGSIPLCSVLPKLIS
# assay: Kinase electrophoretic mobility shift assay, DYRK3
# Format: biochemical
# measurement.context: compounds tested at 10 μM, average of n = 2, ATP at apparent Km; read-out: DYRK3 activity (percent inhibition)
measurement.type: inhibition at 10 µM

compound | inhibition at 10 µM
CC1(C)CNC(=O)c2cc3cnc(N[C@H]4CC[C@H](O)CC4)nc3n21 [Compd 4] | 71 to 90%
O=C1NC2(CCCC2)Cn2c1cc1cnc(N[C@H]3CC[C@H](O)CC3)nc12 [Compd 6] | 71 to 90%
Cc1ccccc1-c1c2n(c3nc(N[C@H]4CC[C@H](O)CC4)ncc13)CCNC2=O [Compd 2] | < 50%
CCC1Cn2c(cc3cnc(N[C@H]4CC[C@H](O)CC4)nc32)C(=O)N1 (stereo partly shown) [Compd 5] | 71 to 90%
O=C1NCC2(CCCC2)n2c1cc1cnc(N[C@H]3CC[C@H](O)CC3)nc12 [Compd 7] | > 90%

Req: Which inhibition at 10 µM is listed for O=C1NCCn2c1cc1cnc(N[C@H]3CC[C@H](O)CC3)nc12 [Compd 3] ?
Resp: 71 to 90%

Req: Need inhibition at 10 µM, item Cc1ccccc1-c1c2n(c3nc(Nc4ccc(N5CCOCC5)cc4)ncc13)CCNC2=O [Compd 1]
Resp: < 50%

---

# reported inhibition at 10 µM; entries follow
# experimental.target: P38 beta (Homo sapiens, UniProt Q15759)
# Sequence (Q15759 whole entry): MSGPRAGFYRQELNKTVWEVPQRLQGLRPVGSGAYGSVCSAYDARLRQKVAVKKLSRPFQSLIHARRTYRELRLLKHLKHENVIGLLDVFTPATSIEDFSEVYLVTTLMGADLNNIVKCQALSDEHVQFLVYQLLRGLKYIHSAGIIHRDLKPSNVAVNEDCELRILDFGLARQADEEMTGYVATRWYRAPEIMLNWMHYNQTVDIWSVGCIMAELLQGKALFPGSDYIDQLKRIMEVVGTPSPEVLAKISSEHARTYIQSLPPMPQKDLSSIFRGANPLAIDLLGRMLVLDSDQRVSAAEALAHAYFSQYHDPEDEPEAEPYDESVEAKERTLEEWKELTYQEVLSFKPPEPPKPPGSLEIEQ
# assay: Kinase electrophoretic mobility shift assay, P38 beta
# Format: biochemical
# measurement.context: compounds tested at 10 μM, average of n = 2, ATP at apparent Km; read-out: P38 beta activity (percent inhibition)

Illustrative cases are given below, each with its answer.
compound | inhibition at 10 µM
CC1(C)CNC(=O)c2cc3cnc(N[C@H]4CC[C@H](O)CC4)nc3n21 [Compd 4] | 50 to 70%
Cc1ccccc1-c1c2n(c3nc(Nc4ccc(N5CCOCC5)cc4)ncc13)CCNC2=O [Compd 1] | < 50%
O=C1NC2(CCCC2)Cn2c1cc1cnc(N[C@H]3CC[C@H](O)CC3)nc12 [Compd 6] | 50 to 70%
O=C1NCC2(CCCC2)n2c1cc1cnc(N[C@H]3CC[C@H](O)CC3)nc12 [Compd 7] | 71 to 90%

Req: Item O=C1NCCn2c1cc1cnc(N[C@H]3CC[C@H](O)CC3)nc12 [Compd 3] has what recorded inhibition at 10 µM?
Resp: < 50%

Req: What does the record list as inhibition at 10 µM for Cc1ccccc1-c1c2n(c3nc(N[C@H]4CC[C@H](O)CC4)ncc13)CCNC2=O [Compd 2] ?
Resp: < 50%

Req: If you can, please state the reported inhibition at 10 µM value of CCC1Cn2c(cc3cnc(N[C@H]4CC[C@H](O)CC4)nc32)C(=O)N1 (stereo partly shown) [Compd 5] .
Resp: 50 to 70%

---

This listing pairs molecules with measured inhibition at 10 µM.
# experimental.target: UniProt P27361
# Sequence (P27361 whole entry): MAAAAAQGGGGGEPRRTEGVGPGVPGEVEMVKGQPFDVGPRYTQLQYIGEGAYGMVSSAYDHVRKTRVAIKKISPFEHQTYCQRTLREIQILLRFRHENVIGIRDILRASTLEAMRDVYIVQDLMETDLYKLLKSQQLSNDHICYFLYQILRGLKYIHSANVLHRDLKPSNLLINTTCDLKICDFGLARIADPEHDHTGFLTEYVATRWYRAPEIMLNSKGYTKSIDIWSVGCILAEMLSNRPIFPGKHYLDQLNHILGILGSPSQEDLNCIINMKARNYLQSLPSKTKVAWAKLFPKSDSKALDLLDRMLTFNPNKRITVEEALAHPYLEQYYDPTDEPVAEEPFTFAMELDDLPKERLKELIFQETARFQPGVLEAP
# assay: Kinase electrophoretic mobility shift assay, MAPK3
# Format: biochemical
# measurement.context: compounds tested at 10 μM, average of n = 2, ATP at apparent Km; read-out: MAPK3 activity (percent inhibition)

Req: For the molecule shown here, "O=C1NCCn2c1cc1cnc(N[C@H]3CC[C@H](O)CC3)nc12" , give the reported inhibition at 10 µM.
Resp: 71 to 90%

Req: For the molecule CCC1Cn2c(cc3cnc(N[C@H]4CC[C@H](O)CC4)nc32)C(=O)N1 (stereo partly shown) , what inhibition at 10 µM is on record?
Resp: 71 to 90%

Req: What value of inhibition at 10 µM has been reported for the following molecule? "O=C1NCC2(CCCC2)n2c1cc1cnc(N[C@H]3CC[C@H](O)CC3)nc12"
Resp: > 90%

Req: For the molecule "O=C1NC2(CCCC2)Cn2c1cc1cnc(N[C@H]3CC[C@H](O)CC3)nc12" , what inhibition at 10 µM is on record?
Resp: > 90%

Req: May I ask what inhibition at 10 µM has been recorded for "CC1(C)CNC(=O)c2cc3cnc(N[C@H]4CC[C@H](O)CC4)nc3n21" ?
Resp: 71 to 90%

Req: Give the measured inhibition at 10 µM of "Cc1ccccc1-c1c2n(c3nc(Nc4ccc(N5CCOCC5)cc4)ncc13)CCNC2=O" .
Resp: < 50%

Req: Query (molecule): "Cc1ccccc1-c1c2n(c3nc(N[C@H]4CC[C@H](O)CC4)ncc13)CCNC2=O" ; field requested: inhibition at 10 µM
Resp: 50 to 70%

---

Measured inhibition at 10 µM, listed per entry for reference.
# experimental.target: Aurora -A (Homo sapiens, UniProt O14965)
# Sequence (O14965 whole entry): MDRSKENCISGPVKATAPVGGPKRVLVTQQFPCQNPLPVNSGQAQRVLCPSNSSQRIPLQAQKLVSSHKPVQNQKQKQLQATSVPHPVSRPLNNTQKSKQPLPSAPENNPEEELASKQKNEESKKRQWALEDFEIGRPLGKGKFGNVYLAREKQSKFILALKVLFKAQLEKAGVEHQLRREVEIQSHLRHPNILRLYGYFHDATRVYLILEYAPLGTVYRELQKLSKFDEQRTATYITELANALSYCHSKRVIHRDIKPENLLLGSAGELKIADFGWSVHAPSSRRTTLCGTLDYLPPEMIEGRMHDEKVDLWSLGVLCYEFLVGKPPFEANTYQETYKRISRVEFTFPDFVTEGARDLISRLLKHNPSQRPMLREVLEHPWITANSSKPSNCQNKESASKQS
# assay: Kinase electrophoretic mobility shift assay, Aurora -A
# Format: biochemical
# measurement.context: compounds tested at 10 μM, average of n = 2, ATP at apparent Km; read-out: Aurora -A activity (percent inhibition)

compound | experimental.target | result
Cc1ccccc1-c1c2n(c3nc(Nc4ccc(N5CCOCC5)cc4)ncc13)CCNC2=O | Aurora -A (Homo sapiens, UniProt O14965) | < 50%
CCC1Cn2c(cc3cnc(N[C@H]4CC[C@H](O)CC4)nc32)C(=O)N1 (stereo partly shown) | Aurora -A (Homo sapiens, UniProt O14965) | < 50%
O=C1NC2(CCCC2)Cn2c1cc1cnc(N[C@H]3CC[C@H](O)CC3)nc12 | Aurora -A (Homo sapiens, UniProt O14965) | 50 to 70%
CC1(C)CNC(=O)c2cc3cnc(N[C@H]4CC[C@H](O)CC4)nc3n21 | Aurora -A (Homo sapiens, UniProt O14965) | 50 to 70%

Req: Looking for the measured inhibition at 10 µM of "O=C1NCC2(CCCC2)n2c1cc1cnc(N[C@H]3CC[C@H](O)CC3)nc12" , can you help?
Resp: > 90%

Req: Could you share which inhibition at 10 µM value was measured for "Cc1ccccc1-c1c2n(c3nc(N[C@H]4CC[C@H](O)CC4)ncc13)CCNC2=O" ?
Resp: < 50%

Req: inhibition at 10 µM lookup needed for "O=C1NCCn2c1cc1cnc(N[C@H]3CC[C@H](O)CC3)nc12" , thanks.
Resp: < 50%
